# Test system: CCRF-CEM
# assayComment: NCI tumour cell line growth inhibition, 48 h
Active and inactive are the calls of the source. Cut-off read from the data, not from the text of the source: active = GI50 up to about 1.1 µM and inactive = higher.
Classes used: label 1 for active, label 0 for inactive

{"compound": "O=C(Nc1ccc(Cl)c(C(F)(F)F)c1)C(=O)C(C(=O)/C=C/c1ccccc1)C1OC(=O)c2ccccc21 (stereo not given)", "assayedTarget": "CCRF-CEM", "group": "label 0"}
{"compound": "COc1c(-c2nc3ccc(N4CCN(C)CC4)nc3[nH]2)cc(OC)c2c1nc(CO)n2C", "assayedTarget": "CCRF-CEM", "group": "label 0"}
{"compound": "CCOC(=O)C1(C(=O)OCC)[C@@H](c2ccccc2)C2=NO[C@@H]3CCC[C@H]1[C@H]23", "assayedTarget": "CCRF-CEM", "group": "label 0"}
{"compound": "CN(C)CC1CCC(=C2CCCC2)C1=O (stereo not given)", "assayedTarget": "CCRF-CEM", "group": "label 0"}
{"compound": "CC(C)c1ccc(C(c2c(O)oc3ccccc3c2=O)c2c(O)oc3ccccc3c2=O)cc1", "assayedTarget": "CCRF-CEM", "group": "label 0"}
{"compound": "CCCC(O)[C@@]1(CC)CC(C)C(O)(C2(C)C[C@H](C)[C@@H](C(CC)C(=O)C(C)[C@@H](O)[C@H](C)C3OC(O)(C(CC)C(=O)O)[C@@H](C)C(O)C3CC)O2)O1 (stereo not given in full)", "assayedTarget": "CCRF-CEM", "group": "label 1"}
{"compound": "CCC(c1ccc(N(C)C)cc1)C1NC(=S)NC1=O (stereo not given)", "assayedTarget": "CCRF-CEM", "group": "label 0"}
{"compound": "CNc1ncnc2c1nnn2C", "assayedTarget": "CCRF-CEM", "group": "label 0"}
{"compound": "CC(=O)OCC(=O)[C@@]1(O)CC[C@H]2[C@@H]3CCC4=CC(=O)[C@H](C)C[C@]4(C)[C@H]3[C@@H](O)C[C@@]21C", "assayedTarget": "CCRF-CEM", "group": "label 0"}
{"compound": "C=C(C)COC1CCCCO1 (stereo not given)", "assayedTarget": "CCRF-CEM", "group": "label 0"}

* * *

# Test system: HOP-18
# assayComment: NCI tumour cell line growth inhibition, 48 h
Calls of active or inactive are those of the source. No stated cut-off is given here; in the data, active = GI50 up to about 1.1 µM and inactive = higher.
GI50 values for the molecules below.
measuredMetric: GI50

{"molecule": "COC(=O)C1=C(c2ccc(Cl)cc2)C(O)NC(NN)=N1 (stereo unspecified)", "measuredMetric": "GI50", "obsValue": "> 100 µM (inactive)"}
{"molecule": "Nc1ccn(C2C=C(CO)C(O)C2O)c(=O)c1 (stereo unspecified)", "measuredMetric": "GI50", "obsValue": "> 625 µM (inactive)"}
{"molecule": "CN(C)CC1CCC(=C2CCCC2)C1=O (stereo unspecified)", "measuredMetric": "GI50", "obsValue": "16.7 µM (inactive)"}
{"molecule": "Cc1ccc2ccc3ccc(C)nc3c2n1", "measuredMetric": "GI50", "obsValue": "63.4 µM (inactive)"}
{"molecule": "CCCCCCCSCC1OC(n2cnc3c(N)ncnc32)C(O)C1O (stereo unspecified)", "measuredMetric": "GI50", "obsValue": "17.9 µM (inactive)"}
{"molecule": "O=[N+]([O-])c1ccc(Cc2nc3ccccc3s2)cc1", "measuredMetric": "GI50", "obsValue": "> 100 µM (inactive)"}
